Every entry's value here was drawn from patent US20250145711A1.

# system_name: T1, TRCW5 antigen (CD3δε-Fc-Avi) (biotinylated (site not stated))
# T1 construct: also called recombinant CD3
# assay_name: ELISA after heat

binder | % Retained 60° C., %
CD3B2082 (scFv) scFv: QVQLVQSGAEVKKPGSSVKVSCKASGYTFTRSTMHWVRQAPGQGLEWMGYINPSSAYTNYAQKFQGRVTLTADKSTSTAYMELSSLRSEDTAVYYCASPQVHYDYNGFPYWGQGTLVTVSSGGSEGKSSGSGSESKSTGGSEIVLTQSPATLSASPGERVTLSCSASSSVSYMNWYQQKPGTSPRRWIYDSSKLASGVPARFSGSGSGRDYTLTISSLEPEDFAVYYCQQWSRNPPTFGGGTKVEIK | 116
CD3B2062 (scFv) scFv: QVQLVQSGAEVKKPGSSVKVSCKASGYTFTRSTMHWVKQAPGQGLEWIGYINPSSAYTNYAQKFQGRVTLTADKSTSTAYMELSSLRSEDTAVYYCASPQVHYDYNGFPYWGQGTLVTVSSGGSEGKSSGSGSESKSTGGSEIVLTQSPATLSASPGERVTLSCSASSSVSYMNWYQQKPGTSPRRLIYDSSKLASGVPARFSGSGSGRDYTLTISSLEPEDFAVYYCQQWSRNPPTFGGGTKVEIK | 102
CD3B2036 (scFv) scFv: QVQLVQSGAEVKKPGSSVKVSCKASGYTFTRSTMHWVKQAPGQGLEWMGYINPSSAYTNYAQKFQGRVTLTADKSTSTAYMELSSLRSEDTAVYYCASPQVHYDYNGFPYWGQGTLVTVSSGGSEGKSSGSGSESKSTGGSEIVLTQSPATLSASPGERVTLSCSASSSVSYMNWYQQKPGTAPRRWIYDSSKLASGVPARFSGSGSGRDYTLTISSLEPEDFAVYYCQQWSRNPPTFGGGTKVEIK | 105
